The following are reported Ki results, target or system Carbonic anhydrase 2 (Homo sapiens, UniProt P00918).
MEASURED PROPERTY: Ki (nM)

smiles_notation=NS(=O)(=O)c1ccc(NC(=O)NCCc2ccccc2)cc1 value_units=nM observed=660
smiles_notation=NS(=O)(=O)Oc1ccc(NC(=O)NCc2ccccc2)cc1 value_units=nM observed=274

====

Target: Carbonic anhydrase (Candida albicans (strain SC5314 / ATCC MYA-2876) (Yeast))
Sequence (Q5AJ71 whole entry): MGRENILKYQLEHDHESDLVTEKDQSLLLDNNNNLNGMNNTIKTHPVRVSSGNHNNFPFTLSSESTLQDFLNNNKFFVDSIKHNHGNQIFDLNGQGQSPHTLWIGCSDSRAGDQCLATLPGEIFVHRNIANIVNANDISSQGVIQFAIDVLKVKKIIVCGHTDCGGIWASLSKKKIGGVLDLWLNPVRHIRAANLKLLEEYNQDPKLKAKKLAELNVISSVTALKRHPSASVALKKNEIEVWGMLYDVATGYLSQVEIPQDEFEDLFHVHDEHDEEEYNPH
pKi: −log10 of the molar value.
MEASURED PROPERTY: pKi

smiles_notation=NS(=O)(=O)Nc1ccc(NC(=O)NC2CCCCC2)cc1 observed=6.87
smiles_notation=NS(=O)(=O)Oc1ccc(NC(=O)NCCc2ccccc2)cc1 observed=6.88
smiles_notation=NS(=O)(=O)Oc1ccc(NC(=O)Nc2ccc([N+](=O)[O-])cc2)cc1 observed=6.97
smiles_notation=NS(=O)(=O)Oc1ccc(NC(=O)Nc2ccc(Cl)cc2)cc1 observed=6.30
smiles_notation=CCCCOc1ccc(NC(=O)Nc2ccc(NS(N)(=O)=O)cc2)cc1 observed=6.87
smiles_notation=NS(=O)(=O)Oc1ccc(NC(=O)Nc2ccc(C(F)(F)F)c(C(F)(F)F)c2C(F)(F)F)cc1 observed=7.12

====

target: UniProt Q6FTL6; design: species or system Nakaseomyces glabratus; settings: read-out: Ki
Sequence (Q6FTL6 whole entry): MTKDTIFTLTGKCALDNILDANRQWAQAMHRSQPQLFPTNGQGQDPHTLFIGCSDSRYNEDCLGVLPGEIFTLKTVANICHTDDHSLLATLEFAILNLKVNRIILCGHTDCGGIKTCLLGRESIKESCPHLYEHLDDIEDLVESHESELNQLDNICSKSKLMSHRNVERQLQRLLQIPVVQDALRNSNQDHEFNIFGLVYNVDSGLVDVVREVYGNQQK
MEASURED PROPERTY: Ki

molecule=NS(=O)(=O)Oc1ccc(NC(=O)NCCc2ccccc2)cc1 assayed_system="UniProt Q6FTL6" measured_property=Ki observed="7.5 nM"
molecule=NS(=O)(=O)Oc1ccc(NC(=O)Nc2ccc(C(F)(F)F)c(C(F)(F)F)c2C(F)(F)F)cc1 assayed_system="UniProt Q6FTL6" measured_property=Ki observed="5.8 nM"
molecule=NS(=O)(=O)c1ccc(NC(=O)Nc2ccc(Cl)cc2)cc1 assayed_system="UniProt Q6FTL6" measured_property=Ki observed="7 nM"
molecule=Nc1ccc(S(N)(=O)=O)cc1F assayed_system="UniProt Q6FTL6" measured_property=Ki observed="98 nM"
molecule=Nc1nnc(S(N)(=O)=O)s1 assayed_system="UniProt Q6FTL6" measured_property=Ki observed="95 nM"
molecule=NS(=O)(=O)Oc1ccc(NC(=O)Nc2ccc(Cl)cc2)cc1 assayed_system="UniProt Q6FTL6" measured_property=Ki observed="9.4 nM"
molecule=Nc1nccc(Nc2ccc(S(N)(=O)=O)cc2)n1 assayed_system="UniProt Q6FTL6" measured_property=Ki observed="83 nM"
molecule="CCOc1ccc2nc(S(N)(=O)=O)sc2c1 [ETHOXZOLAMIDE]" assayed_system="UniProt Q6FTL6" measured_property=Ki observed="3130 nM"
molecule=Cn1nc(S(N)(=O)=O)sc1=N assayed_system="UniProt Q6FTL6" measured_property=Ki observed="786 nM"
molecule=Cc1cc(C)cc(NC(=O)Nc2ccc(NS(N)(=O)=O)cc2)c1 assayed_system="UniProt Q6FTL6" measured_property=Ki observed="8.5 nM"
molecule=NS(=O)(=O)c1ccc(CCO)cc1 assayed_system="UniProt Q6FTL6" measured_property=Ki observed="48 nM"
molecule=NS(=O)(=O)Oc1ccc(NC(=O)Nc2ccc([N+](=O)[O-])cc2)cc1 assayed_system="UniProt Q6FTL6" measured_property=Ki observed="6.4 nM"
molecule=NS(=O)(=O)Oc1ccc(NC(=O)NCc2ccccc2)cc1 assayed_system="UniProt Q6FTL6" measured_property=Ki observed="8.4 nM"
molecule=NS(=O)(=O)Nc1ccc(NC(=O)NCCc2ccccc2)cc1 assayed_system="UniProt Q6FTL6" measured_property=Ki observed="15.1 nM"
molecule=NS(=O)(=O)Oc1ccc(NC(=O)Nc2ccc3c(c2)Cc2ccccc2-3)cc1 assayed_system="UniProt Q6FTL6" measured_property=Ki observed="115 nM"
molecule="Cc1ccc(S(N)(=O)=O)cc1 [P-TOLUENESULFONAMIDE]" assayed_system="UniProt Q6FTL6" measured_property=Ki observed="846 nM"
molecule=NS(=O)(=O)Oc1ccc(NC(=O)Nc2c(F)cc(F)cc2Br)cc1 assayed_system="UniProt Q6FTL6" measured_property=Ki observed="5 nM"
molecule=NS(=O)(=O)c1ccc(NC(=O)NCCc2ccccc2)cc1 assayed_system="UniProt Q6FTL6" measured_property=Ki observed="56 nM"
molecule=Nc1ccc(S(=O)(=O)NCc2ccc(S(N)(=O)=O)cc2)cc1 assayed_system="UniProt Q6FTL6" measured_property=Ki observed="108 nM"
molecule=NS(=O)(=O)c1ccc(NC(=O)Nc2ccc(Br)cc2)cc1 assayed_system="UniProt Q6FTL6" measured_property=Ki observed="5.4 nM"
molecule=Nc1cc(C(F)(F)F)c(S(N)(=O)=O)cc1S(N)(=O)=O assayed_system="UniProt Q6FTL6" measured_property=Ki observed="97 nM"
molecule=NS(=O)(=O)Oc1ccc(NC(=O)Nc2ccccc2)cc1 assayed_system="UniProt Q6FTL6" measured_property=Ki observed="9.6 nM"
molecule=NS(=O)(=O)c1nnc(-c2ccccc2Cl)s1 assayed_system="UniProt Q6FTL6" measured_property=Ki observed="420 nM"
molecule=NS(=O)(=O)c1ccc(CO)cc1 assayed_system="UniProt Q6FTL6" measured_property=Ki observed="61 nM"
molecule=NS(=O)(=O)c1ccc(NC(=O)Nc2ccccc2)cc1 assayed_system="UniProt Q6FTL6" measured_property=Ki observed="73 nM"
molecule=Nc1cc(Cl)c(S(N)(=O)=O)cc1S(N)(=O)=O assayed_system="UniProt Q6FTL6" measured_property=Ki observed="86 nM"
molecule=Cc1ccc(-c2cc(C(F)(F)F)nn2-c2ccc(S(N)(=O)=O)cc2)cc1 assayed_system="UniProt Q6FTL6" measured_property=Ki observed="116 nM"
molecule=NS(=O)(=O)Nc1ccc(NC(=O)NCc2ccco2)cc1 assayed_system="UniProt Q6FTL6" measured_property=Ki observed="24.1 nM"
molecule="CCN[C@H]1CN(CCCOC)S(=O)(=O)c2sc(S(N)(=O)=O)cc21 [BRINZOLAMIDE]" assayed_system="UniProt Q6FTL6" measured_property=Ki observed="4350 nM"
molecule=Nc1ccc(S(N)(=O)=O)cc1Cl assayed_system="UniProt Q6FTL6" measured_property=Ki observed="97 nM"
